# Protocol description: Pharmacokinetics in CD1 male mice (plasma, HPLC-MS)
# Assay type: in vivo
# Run conditions: male, CD1, mouse, plasma, po, 10 mg/kg, PO 10 mg/kg, Mean of 4 mice; read-out: MRTInf—obs
# Method: Formulation and dosing information for pharmacokinetic data is provided in Table 5 (CD=beta-cyclodextrin). The solutions were sonicated, vortexed, and slightly heated resulting in a clear purple liquid. Pharmacokinetic data was produced by administering CD1 male mice with CCL-104 (H4CBD) or CCL-106 (H4CBDV). Each compound was formulated and administered as shown in Example 3. […] 15 μL of the diluted supernatant was injected into the LC/MS/MS system for quantitative analysis.
Property label: MRT inf
Returns: string containing the numeric result and its unit.

Short answer for CCCc1cc(O)c(C2CC(C)CCC2C(C)C)c(O)c1 (racemic) [CCL-106, hexahydrocannabidivarin] : MRT inf was 4.9 h
